- Tested on: Escherichia coli TOP10;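 also: peptides expressed intracellularly from a pBAD plasmid library in pooled LB shake-flask culture, induced with 0.3% L-arabinose, DNA abundance read by NGS, three biological replicates, DESeq2 with apeglm shrinkage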
- experimental-details: shrunken log2 fold change of peptide-encoding DNA abundance (4.5 h post-induction vs induction); higher = less antimicrobial activity (less host growth inhibition)
- condition-set: time post-induction: 4.5 h; library: site-saturation at positions 5, 18, 19, 20
Decision: shrunken log2 fold change >= 0.04 yields TRUE, all other cases yield FALSE.

[in] For this sequence, is measured shrunken log2 fold change 0.04 or higher? "RRIRMRPPRLPRPRPRPLGFPRP"
[out] TRUE

[in] For this sequence, is measured shrunken log2 fold change 0.04 or higher? "RRIRIRPPRLPRPRPRPQHKPRP"
[out] FALSE

[in] For this sequence, is measured shrunken log2 fold change 0.04 or higher? "RRIRKRPPRLPRPRPRPIWIPRP"
[out] FALSE

[in] For this sequence, is measured shrunken log2 fold change 0.04 or higher? "RRIRARPPRLPRPRPRPSWSPRP"
[out] FALSE

[in] For this sequence, is measured shrunken log2 fold change 0.04 or higher? "RRIRQRPPRLPRPRPRPLFCPRP"
[out] TRUE

[in] For this sequence, is measured shrunken log2 fold change 0.04 or higher? "RRIRYRPPRLPRPRPRPDCHPRP"
[out] FALSE

[in] For this sequence, is measured shrunken log2 fold change 0.04 or higher? "RRIRARPPRLPRPRPRPTRYPRP"
[out] TRUE

[in] For this sequence, is measured shrunken log2 fold change 0.04 or higher? "RRIRQRPPRLPRPRPRPKFCPRP"
[out] FALSE

[in] For this sequence, is measured shrunken log2 fold change 0.04 or higher? "RRIRIRPPRLPRPRPRPSDPPRP"
[out] FALSE

[in] For this sequence, is measured shrunken log2 fold change 0.04 or higher? "RRIRLRPPRLPRPRPRPSSIPRP"
[out] FALSE

[in] For this sequence, is measured shrunken log2 fold change 0.04 or higher? "RRIRVRPPRLPRPRPRPRYGPRP"
[out] FALSE

[in] For this sequence, is measured shrunken log2 fold change 0.04 or higher? "RRIRGRPPRLPRPRPRPACKPRP"
[out] TRUE

[in] For this sequence, is measured shrunken log2 fold change 0.04 or higher? "RRIRDRPPRLPRPRPRPEKKPRP"
[out] FALSE

[in] For this sequence, is measured shrunken log2 fold change 0.04 or higher? "RRIRTRPPRLPRPRPRPDKGPRP"
[out] FALSE

[in] For this sequence, is measured shrunken log2 fold change 0.04 or higher? "RRIRMRPPRLPRPRPRPGKAPRP"
[out] TRUE

[in] For this sequence, is measured shrunken log2 fold change 0.04 or higher? "RRIRIRPPRLPRPRPRPFFWPRP"
[out] TRUE

[in] For this sequence, is measured shrunken log2 fold change 0.04 or higher? "RRIRPRPPRLPRPRPRPHRNPRP"
[out] FALSE

[in] For this sequence, is measured shrunken log2 fold change 0.04 or higher? "RRIRGRPPRLPRPRPRPRVRPRP"
[out] TRUE

[in] For this sequence, is measured shrunken log2 fold change 0.04 or higher? "RRIRSRPPRLPRPRPRPKHSPRP"
[out] FALSE

[in] For this sequence, is measured shrunken log2 fold change 0.04 or higher? "RRIRWRPPRLPRPRPRPVGGPRP"
[out] TRUE

[in] For this sequence, is measured shrunken log2 fold change 0.04 or higher? "RRIRTRPPRLPRPRPRPIPIPRP"
[out] FALSE

[in] For this sequence, is measured shrunken log2 fold change 0.04 or higher? "RRIRARPPRLPRPRPRPVLLPRP"
[out] TRUE

[in] For this sequence, is measured shrunken log2 fold change 0.04 or higher? "RRIRPRPPRLPRPRPRPINTPRP"
[out] FALSE

[in] For this sequence, is measured shrunken log2 fold change 0.04 or higher? "RRIRARPPRLPRPRPRPNSFPRP"
[out] FALSE

[in] For this sequence, is measured shrunken log2 fold change 0.04 or higher? "RRIRWRPPRLPRPRPRPPDNPRP"
[out] TRUE

[in] For this sequence, is measured shrunken log2 fold change 0.04 or higher? "RRIRFRPPRLPRPRPRPSFRPRP"
[out] FALSE

[in] For this sequence, is measured shrunken log2 fold change 0.04 or higher? "RRIRHRPPRLPRPRPRPHTLPRP"
[out] FALSE

[in] For this sequence, is measured shrunken log2 fold change 0.04 or higher? "RRIRYRPPRLPRPRPRPSMNPRP"
[out] FALSE

[in] For this sequence, is measured shrunken log2 fold change 0.04 or higher? "RRIRVRPPRLPRPRPRPAHPPRP"
[out] TRUE

[in] For this sequence, is measured shrunken log2 fold change 0.04 or higher? "RRIRERPPRLPRPRPRPDPEPRP"
[out] FALSE

[in] For this sequence, is measured shrunken log2 fold change 0.04 or higher? "RRIRQRPPRLPRPRPRPVSPPRP"
[out] FALSE

[in] For this sequence, is measured shrunken log2 fold change 0.04 or higher? "RRIRGRPPRLPRPRPRPDIGPRP"
[out] TRUE

[in] For this sequence, is measured shrunken log2 fold change 0.04 or higher? "RRIRRRPPRLPRPRPRPCKLPRP"
[out] FALSE

[in] For this sequence, is measured shrunken log2 fold change 0.04 or higher? "RRIRRRPPRLPRPRPRPENCPRP"
[out] TRUE

[in] For this sequence, is measured shrunken log2 fold change 0.04 or higher? "RRIRLRPPRLPRPRPRPFVMPRP"
[out] FALSE

[in] For this sequence, is measured shrunken log2 fold change 0.04 or higher? "RRIRARPPRLPRPRPRPEDIPRP"
[out] TRUE

[in] For this sequence, is measured shrunken log2 fold change 0.04 or higher? "RRIRGRPPRLPRPRPRPETMPRP"
[out] TRUE

[in] For this sequence, is measured shrunken log2 fold change 0.04 or higher? "RRIRMRPPRLPRPRPRPYNDPRP"
[out] FALSE

[in] For this sequence, is measured shrunken log2 fold change 0.04 or higher? "RRIRTRPPRLPRPRPRPFGNPRP"
[out] TRUE

[in] For this sequence, is measured shrunken log2 fold change 0.04 or higher? "RRIRQRPPRLPRPRPRPLYCPRP"
[out] FALSE

[in] For this sequence, is measured shrunken log2 fold change 0.04 or higher? "RRIRARPPRLPRPRPRPCYVPRP"
[out] FALSE

[in] For this sequence, is measured shrunken log2 fold change 0.04 or higher? "RRIRERPPRLPRPRPRPVQRPRP"
[out] TRUE

[in] For this sequence, is measured shrunken log2 fold change 0.04 or higher? "RRIRLRPPRLPRPRPRPYDWPRP"
[out] FALSE

[in] For this sequence, is measured shrunken log2 fold change 0.04 or higher? "RRIRGRPPRLPRPRPRPQATPRP"
[out] TRUE

[in] For this sequence, is measured shrunken log2 fold change 0.04 or higher? "RRIRKRPPRLPRPRPRPHPCPRP"
[out] FALSE

[in] For this sequence, is measured shrunken log2 fold change 0.04 or higher? "RRIRERPPRLPRPRPRPDTLPRP"
[out] FALSE

[in] For this sequence, is measured shrunken log2 fold change 0.04 or higher? "RRIRWRPPRLPRPRPRPMEMPRP"
[out] FALSE

[in] For this sequence, is measured shrunken log2 fold change 0.04 or higher? "RRIRWRPPRLPRPRPRPEVLPRP"
[out] TRUE

[in] For this sequence, is measured shrunken log2 fold change 0.04 or higher? "RRIRCRPPRLPRPRPRPALAPRP"
[out] TRUE

[in] For this sequence, is measured shrunken log2 fold change 0.04 or higher? "RRIRERPPRLPRPRPRPWLVPRP"
[out] FALSE

[in] For this sequence, is measured shrunken log2 fold change 0.04 or higher? "RRIRRRPPRLPRPRPRPASIPRP"
[out] FALSE

[in] For this sequence, is measured shrunken log2 fold change 0.04 or higher? "RRIRDRPPRLPRPRPRPQYPPRP"
[out] FALSE

[in] For this sequence, is measured shrunken log2 fold change 0.04 or higher? "RRIRHRPPRLPRPRPRPYNCPRP"
[out] FALSE

[in] For this sequence, is measured shrunken log2 fold change 0.04 or higher? "RRIRPRPPRLPRPRPRPVPFPRP"
[out] FALSE

[in] For this sequence, is measured shrunken log2 fold change 0.04 or higher? "RRIRNRPPRLPRPRPRPTKYPRP"
[out] FALSE

[in] For this sequence, is measured shrunken log2 fold change 0.04 or higher? "RRIRLRPPRLPRPRPRPEDHPRP"
[out] FALSE

[in] For this sequence, is measured shrunken log2 fold change 0.04 or higher? "RRIRWRPPRLPRPRPRPTSRPRP"
[out] FALSE

[in] For this sequence, is measured shrunken log2 fold change 0.04 or higher? "RRIRSRPPRLPRPRPRPCQPPRP"
[out] TRUE

[in] For this sequence, is measured shrunken log2 fold change 0.04 or higher? "RRIRARPPRLPRPRPRPPLAPRP"
[out] TRUE

[in] For this sequence, is measured shrunken log2 fold change 0.04 or higher? "RRIRMRPPRLPRPRPRPPKKPRP"
[out] TRUE

[in] For this sequence, is measured shrunken log2 fold change 0.04 or higher? "RRIRCRPPRLPRPRPRPMDHPRP"
[out] FALSE

[in] For this sequence, is measured shrunken log2 fold change 0.04 or higher? "RRIRHRPPRLPRPRPRPMANPRP"
[out] FALSE
